Tested on: K-562 leukemia
MEASUREMENT PROTOCOL: NCI tumour cell line growth inhibition, 48 h; in the data active = GI50 below about 0.43 µM; inactive = the rest
Result category, one only: active, inactive

Solved entries:
MOLECULE	SUBJECT OF TEST	CAT
Cc1ccc(-c2nc([P+](c3ccccc3)(c3ccccc3)c3ccccc3)c(S(=O)(=O)c3ccc(C)cc3)o2)cc1	K-562 leukemia	active
Cc1cccc2c3c(sc12)C(c1ccc(Cl)cc1)C(C#N)=C(N)O3 (stereo unspecified)	K-562 leukemia	active
COc1ccc(/C=C(\C#N)n2nnc3c(F)cccc32)cc1	K-562 leukemia	active
CC(C)(Br)C(=O)C(Br)Br	K-562 leukemia	inactive
Oc1cccc2ccc(N/N=C/c3cc(CN4CCOCC4)c(O)c4ncccc34)nc12	K-562 leukemia	active

q: Write down the call the test reported for this molecule. Item: Cc1cc(N=Nc2ccccc2C)ccc1N
a: inactive

q: Write down the call the test reported for this molecule. Item: O=C(Nc1cccc(-n2cc(-c3ccncc3)c(-c3cc(O)cc(Cl)c3)n2)c1)c1cc(C(F)(F)F)cc(C(F)(F)F)c1
a: inactive

q: Write down the call the test reported for this molecule. Item: CC(=O)NCc1cccc(C#Cc2cncnc2Nc2ccc(OCc3cccc(F)c3)c(Cl)c2)c1
a: inactive

q: Write down the call the test reported for this molecule. Item: c1ccc(-c2nc(N3CCNCC3)c3oc(-c4ccccc4)nc3n2)cc1
a: inactive

q: Write down the call the test reported for this molecule. Item: Cc1cc(C#Cc2ccc(C(C)(C)C)cc2)ccc1-n1c(/C=C/c2ccc(O)cc2O)nc2ccccc2c1=O
a: inactive

q: Write down the call the test reported for this molecule. Item: C=CCN1CC(=O)N2[C@@H](Cc3ccc(O)cc3F)C(=O)N(Cc3cccc(N4CC(N5CCN(CC)CC5)C4)n3)C[C@@H]2N1C(=O)NCc1ccccc1
a: active

q: Write down the call the test reported for this molecule. Item: CC1=C(CC(=O)c2cccc([N+](=O)[O-])c2)C(=O)c2ccccc2C1=O
a: inactive

q: Write down the call the test reported for this molecule. Item: c1ccc2cc(-c3n(Cc4ccc5ccccc5n4)c4ccccc4[n+]3Cc3ccc4ccccc4n3)ccc2c1
a: active

q: Write down the call the test reported for this molecule. Item: Cc1cc(N(CCCNc2ccnc3cc(Cl)ccc23)Cc2ccco2)nc(N2CCN(C)CC2)n1
a: inactive

q: Write down the call the test reported for this molecule. Item: CCC1(O)C(=O)OCc2c1cc1n(c2=O)Cc2cc3c(NC(=O)CN)cccc3nc2-1 (stereo unspecified)
a: inactive

q: Write down the call the test reported for this molecule. Item: N#CC1=C(/N=C/c2ccccc2)Oc2c(ccc3ccccc23)C1c1ccccc1 (stereo unspecified)
a: active
